Each recorded value in this set is attributed to ChEMBL document CHEMBL3352313.

target: Muscarinic acetylcholine receptor M4 (Homo sapiens); experiment: Activity at human muscarinic acetylcholine receptor subtype 4 expressed in CHO cells co-transfected with chimeric Gqi5 by calcium mobilization assay
Sequence (P08173 whole entry): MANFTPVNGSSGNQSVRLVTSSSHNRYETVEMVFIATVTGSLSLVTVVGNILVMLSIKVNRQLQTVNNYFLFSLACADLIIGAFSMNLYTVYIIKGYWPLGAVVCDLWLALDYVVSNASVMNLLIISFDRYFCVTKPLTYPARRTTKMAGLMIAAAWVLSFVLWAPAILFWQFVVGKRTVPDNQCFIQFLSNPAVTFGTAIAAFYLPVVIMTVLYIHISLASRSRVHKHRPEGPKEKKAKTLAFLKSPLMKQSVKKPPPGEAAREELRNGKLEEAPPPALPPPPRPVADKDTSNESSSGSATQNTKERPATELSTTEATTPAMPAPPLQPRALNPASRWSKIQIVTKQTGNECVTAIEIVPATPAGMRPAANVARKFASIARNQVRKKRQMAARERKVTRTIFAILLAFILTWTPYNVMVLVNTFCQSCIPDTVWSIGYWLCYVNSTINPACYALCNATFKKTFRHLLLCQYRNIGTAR
PROPERTY NAME: EC50

Challenge: Give Muscarinic acetylcholine receptor M4 (Homo sapiens) EC50 for CCN(Cc1ccccc1C(F)(F)F)C(=O)C1CCN(S(=O)(=O)c2ccc3[nH]ncc3c2)CC1
Response given: > 30 µM

###

biological target: UniProt:P08912; assay: Positive allosteric modulator activity at human muscarinic acetylcholine receptor subtype 5 expressed in CHO cells by calcium mobilization assay; type: functional, cell-based; settings: read-out: EC50
PROPERTY NAME: EC50

Take a look at these entries with their results.
CCN(C(=O)C1CCN(S(=O)(=O)c2ccc3[nH]ncc3c2)CC1)[C@H](C)c1ccccc1 : 0.74 µM
CCN(Cc1ccccc1)C(=O)C1CCN(S(=O)(=O)c2ccncc2)CC1 : > 10 µM
CC(C)N(Cc1ccccc1C(F)(F)F)C(=O)C1CCN(S(=O)(=O)c2ccc3[nH]ncc3c2)CC1 : > 10 µM
CCN(Cc1ccccc1)C(=O)C1CCN(S(=O)(=O)c2ccccc2OC)CC1 : > 10 µM
CCN(Cc1ccccc1)C(=O)C1CCN(S(=O)(=O)c2ccc3cccnc3c2)CC1 : > 10 µM

Challenge: Sample CCN(Cc1ccccc1)C(=O)C1CCN(S(=O)(=O)c2ccc(C)s2)CC1 — what was its EC50?
Response given: > 10 µM

Challenge: Sample CCN(Cc1ccccc1C(F)(F)F)C(=O)C1CCN(S(=O)(=O)c2ccc3[nH]ncc3c2)CC1 — what was its EC50?
Response given: 0.19 µM

###

Target: Muscarinic acetylcholine receptor M5 (Homo sapiens)
Sequence (P08912 whole entry): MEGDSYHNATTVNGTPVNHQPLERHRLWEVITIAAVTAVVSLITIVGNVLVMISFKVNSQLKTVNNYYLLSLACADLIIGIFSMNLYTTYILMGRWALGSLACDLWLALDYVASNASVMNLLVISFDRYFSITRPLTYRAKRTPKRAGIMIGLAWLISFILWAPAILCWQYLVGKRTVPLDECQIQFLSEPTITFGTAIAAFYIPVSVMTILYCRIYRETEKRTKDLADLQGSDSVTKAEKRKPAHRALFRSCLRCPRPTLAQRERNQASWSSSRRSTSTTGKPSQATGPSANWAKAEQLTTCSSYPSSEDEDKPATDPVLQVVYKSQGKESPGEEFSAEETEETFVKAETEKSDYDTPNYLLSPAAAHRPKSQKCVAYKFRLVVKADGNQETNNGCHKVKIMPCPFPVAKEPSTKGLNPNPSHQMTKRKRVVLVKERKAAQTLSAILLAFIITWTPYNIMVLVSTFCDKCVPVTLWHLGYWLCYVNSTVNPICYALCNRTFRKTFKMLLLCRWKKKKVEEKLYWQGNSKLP
Assay: Positive allosteric modulator activity at human muscarinic acetylcholine receptor subtype 5 expressed in CHO cells by calcium mobilization assay
Assay type: functional, cell-based
Conditions: read-out: EC50
PROPERTY NAME: EC50

CCN(Cc1ccccc1)C(=O)C1CCN(S(=O)(=O)c2ccccn2)CC1 : > 10 µM
CCN(Cc1ccccc1)C(=O)C1CCN(S(=O)(=O)c2ccc(OC)c(OC)c2)CC1 : > 10 µM

Challenge: Give Muscarinic acetylcholine receptor M5 (Homo sapiens) EC50 for CCN(Cc1ccccc1)C(=O)C1CCN(S(=O)(=O)c2cccc3c2OCCO3)CC1
Response given: > 10 µM
